# EXPERIMENTAL TARGET: histamine H3 receptor (Homo sapiens)
# Construct: expressed in transfected cells; host or cells: CHO K1 cells with pSwitch/pGeneH3 (GeneSwitch, mifepristone-induced), clone 3H3; membrane preparation
# Sequence (Q9Y5N1 whole entry, species assumed): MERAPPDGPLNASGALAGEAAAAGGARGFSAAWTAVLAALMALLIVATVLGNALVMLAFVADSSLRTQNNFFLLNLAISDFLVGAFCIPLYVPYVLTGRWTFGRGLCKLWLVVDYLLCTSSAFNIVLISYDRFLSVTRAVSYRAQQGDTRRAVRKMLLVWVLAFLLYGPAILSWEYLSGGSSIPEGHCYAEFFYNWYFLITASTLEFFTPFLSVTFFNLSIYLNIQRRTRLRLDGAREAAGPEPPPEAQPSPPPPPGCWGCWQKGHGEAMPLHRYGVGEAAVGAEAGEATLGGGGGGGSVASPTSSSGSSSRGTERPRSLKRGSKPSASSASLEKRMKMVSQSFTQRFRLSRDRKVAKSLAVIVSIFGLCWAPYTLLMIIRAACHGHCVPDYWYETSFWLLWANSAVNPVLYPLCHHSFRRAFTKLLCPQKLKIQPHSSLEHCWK
# ASSAY PROTOCOL: Histamine H3 functional antagonist assay (GTPγS, membranes)
# Type: biochemical
# CONDITIONS USED: CHO K1 membranes, [35S]-GTPγS, histamine at EC80; read-out: average pKi (pKb) at H3 (converted)
What Ki was measured for each of the following?

Form field: Ki recorded for `CCCCc1cc(OC2CCN(CCCc3nc(CCC)no3)CC2)c2ncccc2c1` with histamine H3 receptor (Homo sapiens) (enter value)
> 0.316 µM

And for `CCCCc1cc(OC2CCN(CC(=O)NCCC)CC2)c2ncccc2c1` ?
> 0.316 µM

And for `CCCCc1cc(OC2CCN(CC(=O)NCCCOC)CC2)c2ncccc2c1` ?
> 3.16 µM

And for `CCCCCc1cc(OC2CCN(CCCC(=O)N(CC)CC)CC2)c2ncccc2c1` ?
> 0.316 µM

And for `CCCCCCc1cc(OC2CCN(C[C@H]3CC[C@H](C(=O)NC(C)C)CC3)CC2)c2ncccc2c1` ?
> 0.316 µM

And for `CCCCc1cc(OC2CCN(CC3CCN(C(C)=O)CC3)CC2)c2ncccc2c1` ?
> 0.316 µM

And for `CCCCc1cc(OC2CCN(CCCCC(=O)N3CCCCC3)CC2)c2ncccc2c1` ?
> 3.16 µM

And for `CCCCc1cc(OC2CCN(C[C@H]3CC[C@H](C(=O)NCCC)CC3)CC2)c2ncccc2c1` ?
> 0.316 µM

And for `CCCCc1cc(OC2CCN(CCC3CCN(C(C)=O)CC3)CC2)c2ncccc2c1` ?
> 0.316 µM

Values compiled from patent US20100222349A1.
